- ASSAY NOTES: Drug uptake in Wistar rat brain at 30 mg/kg, po after 1 hr by LC-MS/MS analysis
- Type: ADME, organism-based
- CONDITIONS USED: read-out: Drug uptake
MEASURED PROPERTY: concentration at 1 h

> print(dat)
                                 smiles.str  assay.result
1  O=C1c2ccc(OC3CCN(C4CCC4)CC3)cc2CCN1C1CCN(C2CCC2)CC1      765 ng/g

* * *

- TESTED ON: UniProtKB Q9Y5N1
- Sequence (Q9Y5N1 whole entry): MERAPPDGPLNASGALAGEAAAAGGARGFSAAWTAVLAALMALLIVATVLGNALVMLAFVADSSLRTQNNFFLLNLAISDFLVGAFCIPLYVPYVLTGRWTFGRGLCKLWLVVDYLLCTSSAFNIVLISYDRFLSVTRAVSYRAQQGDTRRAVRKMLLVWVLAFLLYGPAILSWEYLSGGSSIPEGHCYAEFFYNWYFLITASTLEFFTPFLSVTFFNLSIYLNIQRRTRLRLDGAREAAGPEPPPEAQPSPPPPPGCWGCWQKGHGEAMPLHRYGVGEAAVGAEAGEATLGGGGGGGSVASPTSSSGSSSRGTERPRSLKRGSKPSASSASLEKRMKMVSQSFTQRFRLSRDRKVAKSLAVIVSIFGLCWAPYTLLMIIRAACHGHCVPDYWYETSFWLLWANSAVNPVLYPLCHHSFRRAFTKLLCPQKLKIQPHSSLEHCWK
- ASSAY NOTES: Displacement of [3H]R-alpha-methyl histamine from recombinant human H3 receptor
MEASURED PROPERTY: Ki (nM)

> print(dat)
                                   molecule  assay.result
1  CC(C)N1CCC(NC(=O)c2ccc(OC3CCN(C4CCCC4)CC3)cc2)C1 (racemic)           8.6
2  CC(C)N1CCC(NC(=O)c2ccc(OC3CCN(C(C)C)CC3)cc2)CC1           8.3
3  CC(C)N1CCC(Oc2ccc(C(=O)NC3CCN(C4CCC4)C3)c(F)c2)CC1 (racemic)           5.7
4  CC(C)N1CCC(Oc2ccc(C(=O)NC3CCN(C4CCC4)C3)c(Cl)c2)CC1 (racemic)          18.4
5  Cc1cc(C(=O)NC2CCN(C(C)C)C2)ccc1OC1CCN(C(C)C)CC1 (racemic)          1360
6  CC(C)N1CCC(Oc2ccc3c(c2)CCN(C2CCN(C4CCC4)CC2)C3=O)CC1           1.8
7  CC(C)N1CCC(NC(=O)c2ccc(OC3CCN(C(C)C)CC3)cc2F)CC1          11.4
8  CC(C)N1CCC(Oc2ccc(C(=O)NC3CCN(C(C)C)C3)cc2)CC1 (racemic)           5.7
9  Cc1cc(OC2CCN(C(C)C)CC2)ccc1C(=O)NC1CCN(C2CCC2)C1 (racemic)           9.2

Where do these numbers come from? They come from ChEMBL document CHEMBL3751729.
